Data provenance: PubChem BioAssay AID179

Kindly state pEC50 for each of the entries shown.
system: CEM cells HIV-1 protection, formazan growth assay; assay: NCI AIDS Antiviral Assay
pEC50: −log10 of the molar value.

>  <compound>
C[n+]1cc(C(O)c2ccc3c(c2)OCO3)c2ccccc2c1 (stereo not given)

>  <pEC50>
< 4.00

$$$$
>  <compound>
N#CCC(=O)NCCc1c[nH]c2ccccc12

>  <pEC50>
< 3.70

$$$$
>  <compound>
COc1cc2c(cc1OC)[N+]1(C)CCC3OCCC4C[N+]5(C)CCC26C5CC4C3C61 (stereo not given)

>  <pEC50>
< 3.43

$$$$
>  <compound>
Cc1nc2c(C#N)c3n(c2c(=O)o1)CCCC3

>  <pEC50>
< 3.70

$$$$
>  <compound>
O=[N+]([O-])c1cc(C=NC23CC4CC(CC(C4)C2)C3)ccc1Cl

>  <pEC50>
< 3.70

$$$$

Please give pEC50, item by item, for the list that follows.
1. CC[C@H]1CN(C)[C@H]2Cc3c([nH]c4ccccc34)C(=O)C[C@H]1C2C(=O)OC (stereo not given in full)
2. CCCC(CC)C(C(=O)OCC)C1=NC(C)(C)CC(C)O1 (stereo not given)
3. CCCCCOC(=O)c1cccc(NC(=O)CN(CC)CC)c1
4. CCN(CC)C(=O)C1=C(C)NC(C)=C(C(=O)N(CC)CC)C1
5. O=C(CC12C3C4C1C1C2C3C41CC(=O)NO)NO (stereo not given)
6. C#CC1(O)CCC2C3CCc4cc(OC)ccc4C3CCC21C (stereo not given)
7. O=C1NC(=O)C(C(=O)C(=O)Nc2cc(Cl)ccc2Cl)C(=O)N1

RESULT:
< 3.89
< 3.70
< 3.70
< 3.70
< 3.60
< 3.70
< 3.42

Please give pEC50, item by item, for the list that follows.
1. CC(=O)Nc1ccc(-c2nnc(SCC(=O)Nc3ccccc3C)o2)cc1
2. N#CC(C#N)=Cc1ccccc1O
3. CCOC(=O)c1c(C)c2c(n1C)CCc1cn[nH]c1-2
4. CC1=CO[C@@H]2O[C@@]3(C)CC[C@H]4[C@H](C)CC[C@@H]1[C@@]24OO3

RESULT:
1: < 4.17; 2: < 3.70; 3: < 3.72; 4: < 3.70

Please give pEC50, item by item, for the list that follows.
1. O=C1CCc2c(Cl)sc(Cl)c21
2. COC12C(COC(=O)NCCO)C3=C(C(=O)C(C)=C(N)C3=O)N1CC1NC12 (stereo not given)

RESULT:
1: < 3.48; 2: < 3.48

Please give pEC50, item by item, for the list that follows.
1. O=C1/C(=C/c2ccccc2)CN(C(=O)CCN2CCCC2)C/C1=C\c1ccccc1
2. CC(C)(/C=N/O)/[N+]([O-])=C/c1ccccc1
3. CC1(Cl)CC(O)C2(CC1Br)C1(C)OC1C1OC1(Br)C2(C)C (stereo not given)
4. CCOC(=O)CCC(NC(=O)c1ccc(Nc2nc3ccc(C(F)(F)F)cc3nc2-c2ccccc2)cc1)C(=O)OCC (stereo not given)
5. O=[N+]([O-])c1ccc2nc(/C=C(\O)c3ccccc3)c(NC34CC5CC(CC(C5)C3)C4)nc2c1
6. C/C(=N\N(C)C)C(CN(C)C)C(c1ccccc1)c1c(O)c2ccccc2oc1=O (stereo not given)

RESULT:
1: < 3.24; 2: < 3.70; 3: < 3.70; 4: < 3.70; 5: < 3.70; 6: < 4.00

Please give pEC50, item by item, for the list that follows.
1. C=CC1=CC2(O[Si](C(C)C)(C(C)C)C(C)C)CCC1C(COCc1ccccc1)C2C(=O)O (stereo not given)
2. N#Cc1ccc(Sc2ccccc2)cc1C#N

RESULT:
< 4.54
< 3.96

Please give pEC50, item by item, for the list that follows.
1. Nc1nccc2c1ncn2C1OC(CO)C(O)C1O (stereo not given)
2. C=C1C(=O)[C@@]23C(O)C[C@@H]4C(C)(C)CCC(O)C4(COC(C)=O)[C@@H]2CC[C@@H]1[C@H]3O (stereo not given in full)
3. CN(CCO)c1nc(N)cc(=O)[nH]1
4. N#CC1C2C=CC(CCC2)C1C#N (stereo not given)

RESULT:
1: < 3.03; 2: < 3.20; 3: < 2.87; 4: < 3.70
